# Target or test system: Cannabinoid receptor 2 (Homo sapiens, UniProt P34972)
# Sequence (P34972 whole entry): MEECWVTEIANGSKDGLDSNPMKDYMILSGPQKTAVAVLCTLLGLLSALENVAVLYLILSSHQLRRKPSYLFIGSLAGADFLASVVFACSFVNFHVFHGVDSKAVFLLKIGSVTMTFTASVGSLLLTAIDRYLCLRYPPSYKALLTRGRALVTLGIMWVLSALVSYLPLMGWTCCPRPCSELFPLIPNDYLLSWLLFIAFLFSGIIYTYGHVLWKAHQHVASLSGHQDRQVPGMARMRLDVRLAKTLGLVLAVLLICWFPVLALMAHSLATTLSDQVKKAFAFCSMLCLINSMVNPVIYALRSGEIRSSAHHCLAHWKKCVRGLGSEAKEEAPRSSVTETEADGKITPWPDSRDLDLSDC
# Method: Agonist activity at human recombinant CB2 receptor expressed in HEK cells assessed as calcium mobilization by FLIPR relative to CP-55940
# Assay type: functional, cell-based
# Conditions used: HEK293
Listed here: items and their measured Activity.

Smiles notation | Activity
CC1(C)C(C(=O)c2cn(CC3CCOCC3)c3ccc(Cl)cc23)C1(C)C | 69%
CC1(C)C(C(=O)c2cn(CCN3CCOCC3)c3ccccc23)C1(C)C | 71%
CC1(C)C(C(=O)c2cn(CC3CCOCC3)c3ccc(C#N)cc23)C1(C)C | 65%
COc1cccc2c1c(C(=O)C1C(C)(C)C1(C)C)cn2CC1CCOCC1 | 37%
CCCn1c(C)c(C(=O)c2cccc3ccccc23)c2ccccc21 | 75%
CC1(C)C(C(=O)c2cn(CC3CCOCC3)c3cc(O)ccc23)C1(C)C | 107%
CC1(C)C(C(=O)c2cn(CC3CCOCC3)c3ccc(Br)cc23)C1(C)C | 54%
CC1(C)C(C(=O)c2cn(CC3CCOCC3)c3cc4c(cc23)OCO4)C1(C)C | 62%
CC1(C)C(C(=O)c2cn(CC3CCOCC3)c3ccc(F)cc23)C1(C)C | 88%
COCc1ccc2c(c1)c(C(=O)C1C(C)(C)C1(C)C)cn2CC1CCOCC1 | 50%
CC1(C)C(C(=O)c2cn(CC3CCOCC3)c3cccc(OCc4ccccc4)c23)C1(C)C | 45%
CC1(C)C(C(=O)c2cn(CC3CCOCC3)c3cc(Cl)ccc23)C1(C)C | 60%
CC1(C)C(C(=O)c2cn(CC3CCOCC3)c3ccc(N)cc23)C1(C)C | 80%
CC1(C)C(C(=O)c2cn(CC3CCOCC3)c3cc(C#N)ccc23)C1(C)C | 67%
COc1ccc2c(c1)c(C(=O)C1C(C)(C)C1(C)C)cn2CC1CCOCC1 | 35%

====

Listed here: items and their measured pEC50.
# Target or test system: Cannabinoid receptor 2 (Homo sapiens)
# Method: Agonist activity at human recombinant CB2 receptor expressed in HEK cells assessed as calcium mobilization by FLIPR
pEC50: −log10 of the molar value.

Smiles notation | Comparative sign | pEC50
CC1(C)C(C(=O)c2cn(CC3CCOCC3)c3ccc(F)cc23)C1(C)C | = | 7.66
CC1(C)C(C(=O)c2cn(CC3CCOCC3)c3cc(S(C)(=O)=O)ccc23)C1(C)C | < | 5.00
CC1(C)C(C(=O)c2cn(CCN3CCOCC3)c3ccc(O)cc23)C1(C)C | < | 5.00
Cc1c(C(=O)C2C(C)(C)C2(C)C)c2ccccc2n1CCN1CCOCC1 | = | 6.64
CC1(C)C(C(=O)c2cn(CC3CCOCC3)c3ccccc23)C1(C)C | = | 8.15
CC1(C)C(C(=O)c2cn(CC3CCOCC3)c3cc(-c4ccccc4)ccc23)C1(C)C | < | 5.00
CC1(C)C(C(=O)c2cn(CC3CCOCC3)c3cccc(O)c23)C1(C)C | = | 7.19
CC1(C)C(C(=O)c2cn(CC3CCOCC3)c3cc(Cl)ccc23)C1(C)C | = | 8.00
CC1(C)C(C(=O)c2cn(CC3CCOCC3)c3ccc(OCCCCO)cc23)C1(C)C | < | 5.00
COc1ccc2c(c1)c(C(=O)C1C(C)(C)C1(C)C)cn2CCN1CCOCC1 | < | 5.00
COc1ccc2c(C(=O)C3C(C)(C)C3(C)C)cn(CCN3CCOCC3)c2c1 | < | 5.00
CC1(C)C(C(=O)c2cn(CC3CCOCC3)c3cc(O)c(O)cc23)C1(C)C | = | 7.68
CC1(C)C(C(=O)c2cn(CC3CCOCC3)c3cc(CN)ccc23)C1(C)C | < | 5.00
COc1ccc2c(c1)c(C(=O)C1C(C)(C)C1(C)C)cn2CC1CCOCC1 | = | 7.21
CC1(C)C(C(=O)c2cn(CC3CCOCC3)c3ccc(-c4ccccc4)cc23)C1(C)C | < | 5.00
CC1(C)C(C(=O)c2cn(CC3CCOCC3)c3cc(C(F)(F)F)ccc23)C1(C)C | < | 5.00
CC1(C)C(C(=O)c2cn(CC3CCOCC3)c3cc(C#N)ccc23)C1(C)C | = | 7.35
CC1(C)C(C(=O)c2cn(CC3CCOCC3)c3cc(O)ccc23)C1(C)C | = | 7.82
COC(=O)c1ccc2c(C(=O)C3C(C)(C)C3(C)C)cn(CC3CCOCC3)c2c1 | < | 5.00
COc1cc2c(cc1O)c(C(=O)C1C(C)(C)C1(C)C)cn2CC1CCOCC1 | < | 5.00
